Source listed as patent US4794114A.

- Test system: endotoxin shock in C57B1/6 mice
- Type: in vivo, mouse
- condition: mouse, in vivo
result.type: protection from lethal effects of LPS/GALN

smiles.str | meas.value
Fc1ccc(-c2nc3n(c2-c2ccncc2)CCC3)cc1 | protective effects
O=C1CCN(c2ccccc2)N1 | protective effects
CN/C(=N/CCSCc1nc[nH]c1C)NC#N | not

====

- Tested on: adjuvant-induced arthritis in the rat
- method: adjuvant-induced arthritis in the rat: right leg paw edema
- Format: in vivo
- condition: prophylactic, daily p.o. days 1-16; mg/kg: Compound 1 60, indomethacin 2.0, prednisolone 10, methotrexate 0.3, D-penicillamine 50
result.type: Right leg paw edema, % normal control (% normal control)
Use % normal control as the unit, but write only the number.

Consider the worked cases shown below.
compound | result.type | units.of.measure | meas.value
CN(Cc1cnc2nc(N)nc(N)c2n1)c1ccc(C(=O)N[C@@H](CCC(=O)O)C(=O)O)cc1 [METHOTREXATE, methotrexate] | Right leg paw edema, % normal control | % normal control | 96
COc1ccc2c(c1)c(CC(=O)O)c(C)n2C(=O)c1ccc(Cl)cc1 [INDOMETHACIN, indomethacin] | Right leg paw edema, % normal control | % normal control | 113
Fc1ccc(-c2nc3n(c2-c2ccncc2)CCS3)cc1 [Compound 1] | Right leg paw edema, % normal control | % normal control | 134
C[C@]12C=CC(=O)C=C1CC[C@@H]1[C@@H]2[C@@H](O)C[C@@]2(C)[C@H]1CC[C@]2(O)C(=O)CO [PREDNISOLONE, Prednisolone] | Right leg paw edema, % normal control | % normal control | 125

Now for the compound whose Right leg paw edema, % normal control we want.
So what Right leg paw edema, % normal control did CC(C)(S)[C@@H](N)C(=O)O [D-PENICILLAMINE, d-penicillamine] get with adjuvant-induced arthritis in the rat?
184
